Numbers sourced from paper PMC5540273.

Catalogue of %Inh readings, one per entry.
# Test system: DCAMKL2;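 further: KINOMEscan kinase panel screen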
# Construct: gene DCLK2
# CONDITION_DETAILS: concentration: 1 μM, replicates: in singlicate; n = 1
MEASURE_NAME: %Inh (%)

MOLECULE	TGT	ENDPOINT_RESULT
N#Cc1ccc(Oc2ccc(Nc3ncnc4cc[nH]c34)cc2Cl)cc1	DCAMKL2	24
Fc1ccc(Nc2nccc(-c3c(-c4ccc(Cl)cc4)nn4ncccc34)n2)cc1F [GW829058]	DCAMKL2	11
C[C@@H]1CCN(C(=O)CO)C[C@@H]1N(C)c1ncnc2[nH]ccc12	DCAMKL2	0
CCc1nc(-c2cccc(N(C)S(=O)(=O)c3ccccc3)c2)c(-c2ccnc(Nc3ccc(N4CCN(C(C)=O)CC4)nc3)n2)s1 [GSK1645895]	DCAMKL2	0
Clc1ccc(-c2cc(-c3c[nH]nc3-c3ccccn3)ccn2)cc1 [GW681251]	DCAMKL2	0
CS(=O)(=O)CCNCc1ccc(-c2ccc3ncnc(Nc4ccc(OCc5ccccc5)c(Cl)c4)c3c2)o1.Cl [GW574783]	DCAMKL2	0
Nc1nc(-c2ccccn2)c(-c2ccnc3ccccc23)s1 [GW548057]	DCAMKL2	11
c1ccc(-c2ccc3c(-c4ccnc(Nc5ccc6c(c5)OCCO6)n4)cnn3n2)cc1 [GW818941]	DCAMKL2	0
